# assay_target: hmGlu1 (Homo sapiens, UniProt Q13255)
# Sequence (Q13255 19-1194): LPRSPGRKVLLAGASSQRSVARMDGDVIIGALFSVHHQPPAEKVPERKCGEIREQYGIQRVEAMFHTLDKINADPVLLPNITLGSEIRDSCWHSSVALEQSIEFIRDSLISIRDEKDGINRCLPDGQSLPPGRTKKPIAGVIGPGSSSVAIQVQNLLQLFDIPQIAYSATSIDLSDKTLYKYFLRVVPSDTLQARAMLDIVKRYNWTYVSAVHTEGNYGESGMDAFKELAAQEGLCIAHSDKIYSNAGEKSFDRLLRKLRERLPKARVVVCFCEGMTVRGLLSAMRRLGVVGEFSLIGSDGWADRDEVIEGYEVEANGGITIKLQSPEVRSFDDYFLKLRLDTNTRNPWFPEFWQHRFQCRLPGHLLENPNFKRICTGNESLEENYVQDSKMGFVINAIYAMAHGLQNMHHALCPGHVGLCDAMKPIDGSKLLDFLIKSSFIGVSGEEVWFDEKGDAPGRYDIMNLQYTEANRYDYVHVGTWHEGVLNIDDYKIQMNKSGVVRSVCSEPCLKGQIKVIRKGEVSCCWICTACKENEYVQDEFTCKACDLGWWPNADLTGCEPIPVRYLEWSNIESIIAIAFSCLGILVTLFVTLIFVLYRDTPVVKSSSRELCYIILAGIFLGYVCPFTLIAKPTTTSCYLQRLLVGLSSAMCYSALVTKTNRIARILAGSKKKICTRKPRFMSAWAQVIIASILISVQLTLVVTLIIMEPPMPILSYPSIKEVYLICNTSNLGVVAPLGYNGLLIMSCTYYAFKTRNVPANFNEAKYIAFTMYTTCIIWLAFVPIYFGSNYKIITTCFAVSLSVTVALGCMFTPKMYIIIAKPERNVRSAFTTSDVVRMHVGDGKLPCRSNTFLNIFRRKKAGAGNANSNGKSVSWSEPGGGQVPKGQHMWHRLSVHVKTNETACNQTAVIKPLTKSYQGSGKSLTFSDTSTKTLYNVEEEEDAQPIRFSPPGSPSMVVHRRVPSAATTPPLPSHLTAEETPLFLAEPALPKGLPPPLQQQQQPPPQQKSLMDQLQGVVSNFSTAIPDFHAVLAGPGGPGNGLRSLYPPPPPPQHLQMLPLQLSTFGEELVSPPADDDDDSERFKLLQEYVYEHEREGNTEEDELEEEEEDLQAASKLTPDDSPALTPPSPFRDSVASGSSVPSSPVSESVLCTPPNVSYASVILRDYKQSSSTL
# measurement_notes: Calcium mobilization mGlu1 PAM assay
# Format: cell-based
# setup_conditions: mGlu4 EC50 / mGlu1 EC50
The following compounds are shown together with reported Fold selective versus mGlu4 values.

Example cases with answers are listed next.
>>> print(df.to_string())
                                   compound                     endpoint  meas_value
0  Cc1ccoc1C(=O)Nc1ccc(N2C(=O)c3ccccc3C2=O)nc1 [11a]  Fold selective versus mGlu4  >25.8 fold
1  COc1cc(N2C(=O)c3ccccc3C2=O)ccc1NC(=O)c1occc1C [12e]  Fold selective versus mGlu4  >30.3 fold

Incoming: # query: Fold selective versus mGlu4 | item Cc1ccoc1C(=O)Nc1ccc(N2C(=O)c3ccccc3C2=O)cc1 [10a] | system: hmGlu1 (Homo sapiens, UniProt Q13255)
Outgoing: >208 fold

Incoming: # repeat for Cc1ccoc1C(=O)Nc1ccc(N2C(=O)c3ccccc3C2=O)cc1F [12a]
Outgoing: >793 fold

Incoming: Try Cc1ccoc1C(=O)Nc1cnc(N2C(=O)c3cccc(F)c3C2=O)nc1 [11h] next.
Outgoing: >1.88 fold

Incoming: Queued: Cc1ccoc1C(=O)Nc1ccc(N2C(=O)c3ccccc3C2=O)cc1Cl [12b]
Outgoing: >344 fold
